MIC overview
Tested on: Candida albicans
experiment-summary: Antifungal activity against Candida albicans after 48 hrs […]
Assay type: functional

Fc1cc(-c2nnc3n2N=C(Nc2cccc(Cl)c2Cl)CS3)c(Cl)cc1Cl	> 100 µg/mL
Nn1c(SCC(=O)Nc2cc(Cl)c(Cl)cc2Cl)nnc1-c1cc(F)c(Cl)cc1Cl	6.25 µg/mL
Nn1c(SCC(=O)Nc2c(Cl)cccc2Cl)nnc1-c1cc(F)c(Cl)cc1Cl	12.5 µg/mL
Cc1ccc(NC2=Nn3c(nnc3-c3cc(F)c(Cl)cc3Cl)SC2)c(C)c1	25 µg/mL
Nn1c(SCC(=O)Nc2ccc(F)c(Cl)c2)nnc1-c1cc(F)c(Cl)cc1Cl	12.5 µg/mL

Input: Retrieve MIC measured for `Fc1cc(-c2nnc3n2N=C(Nc2c(Cl)cccc2Cl)CS3)c(Cl)cc1Cl` and print it.
Output: 6.25 µg/mL

Input: Retrieve MIC measured for `Fc1ccc(NC2=Nn3c(nnc3-c3cc(F)c(Cl)cc3Cl)SC2)cc1Cl` and print it.
Output: > 100 µg/mL

Input: Retrieve MIC measured for `Cc1cc(C)c(NC(=O)CSc2nnc(-c3cc(F)c(Cl)cc3Cl)n2N)c(C)c1` and print it.
Output: 12.5 µg/mL

Input: Retrieve MIC measured for `COc1ccc(NC2=Nn3c(nnc3-c3cc(F)c(Cl)cc3Cl)SC2)cc1` and print it.
Output: 6.25 µg/mL

Input: Retrieve MIC measured for `Cc1cccc(C)c1NC1=Nn2c(nnc2-c2cc(F)c(Cl)cc2Cl)SC1` and print it.
Output: 12.5 µg/mL

Input: Retrieve MIC measured for `Fc1cc(-c2nnc3n2N=C(Nc2ccc(Cl)cc2)CS3)c(Cl)cc1Cl` and print it.
Output: 6.25 µg/mL

* * *

Test system: Candida albicans
experiment-summary: Antifungal activity against Candida albicans assessed as inhibition zone diameter […] by agar dilution method
Format: functional
inhibition zone (IZ) overview
# number only, unit mm dropped from output

Some entries whose results are on file:
Nn1c(SCC(=O)Nc2ccccc2C(F)(F)F)nnc1-c1cc(F)c(Cl)cc1Cl	19
Nn1c(SCC(=O)Nc2ccc(F)c(Cl)c2)nnc1-c1cc(F)c(Cl)cc1Cl	15
Fc1cc(-c2nnc3n2N=C(Nc2cc(Cl)c(Cl)cc2Cl)CS3)c(Cl)cc1Cl	20
COc1ccc(NC2=Nn3c(nnc3-c3cc(F)c(Cl)cc3Cl)SC2)cc1	19

Input: Retrieve inhibition zone (IZ) measured for `Cc1cc(C)c(NC2=Nn3c(nnc3-c3cc(F)c(Cl)cc3Cl)SC2)c(C)c1` and print it.
Output: 13

* * *

System: Trichophyton mentagrophytes
experiment-summary: Antifungal activity against Trichophyton mentagrophytes assessed as inhibition zone diameter […] by agar dilution method
Assay type: functional
property-label: inhibition zone (IZ) (mm)
# number only, unit mm dropped from output

Cc1cc(C)c(NC2=Nn3c(nnc3-c3cc(F)c(Cl)cc3Cl)SC2)c(C)c1	14
Cc1ccc(NC2=Nn3c(nnc3-c3cc(F)c(Cl)cc3Cl)SC2)cc1	17
Fc1cc(-c2nnc3n2N=C(Nc2cccc(Cl)c2Cl)CS3)c(Cl)cc1Cl	8
Cc1ccc(NC2=Nn3c(nnc3-c3cc(F)c(Cl)cc3Cl)SC2)c(C)c1	12
Fc1cc(-c2nnc3n2N=C(Nc2c(Cl)cccc2Cl)CS3)c(Cl)cc1Cl	12

Input: Retrieve inhibition zone (IZ) measured for `Fc1ccc(NC2=Nn3c(nnc3-c3cc(F)c(Cl)cc3Cl)SC2)cc1` and print it.
Output: 18

Input: Retrieve inhibition zone (IZ) measured for `Nn1c(SCC(=O)Nc2cc(Cl)c(Cl)cc2Cl)nnc1-c1cc(F)c(Cl)cc1Cl` and print it.
Output: 19

Input: Retrieve inhibition zone (IZ) measured for `Cc1ccc(NC(=O)CSc2nnc(-c3cc(F)c(Cl)cc3Cl)n2N)cc1` and print it.
Output: 18

Input: Retrieve inhibition zone (IZ) measured for `COc1ccc(NC2=Nn3c(nnc3-c3cc(F)c(Cl)cc3Cl)SC2)cc1` and print it.
Output: 13

Input: Retrieve inhibition zone (IZ) measured for `Cc1cccc(C)c1NC1=Nn2c(nnc2-c2cc(F)c(Cl)cc2Cl)SC1` and print it.
Output: 19

* * *

System: Candida albicans
experiment-summary: Antifungal activity against Candida albicans assessed as inhibition zone diameter […] by agar dilution method
Type: functional
property-label: inhibition zone (IZ) (mm)
# number only, unit mm dropped from output

Input: Retrieve inhibition zone (IZ) measured for `CCOc1ccc(NC2=Nn3c(nnc3-c3cc(F)c(Cl)cc3Cl)SC2)cc1` and print it.
Output: 12

Input: Retrieve inhibition zone (IZ) measured for `Fc1cc(-c2nnc3n2N=C(Nc2ccccc2C(F)(F)F)CS3)c(Cl)cc1Cl` and print it.
Output: 18

Input: Retrieve inhibition zone (IZ) measured for `Cc1cccc(NC(=O)CSc2nnc(-c3cc(F)c(Cl)cc3Cl)n2N)c1C` and print it.
Output: 18

Input: Retrieve inhibition zone (IZ) measured for `Fc1ccc(NC2=Nn3c(nnc3-c3cc(F)c(Cl)cc3Cl)SC2)cc1` and print it.
Output: 14

Input: Retrieve inhibition zone (IZ) measured for `Cc1cccc(NC2=Nn3c(nnc3-c3cc(F)c(Cl)cc3Cl)SC2)c1C` and print it.
Output: 10

* * *

Test system: Candida albicans
experiment-summary: Antifungal activity against Candida albicans after 48 hrs […]
Format: functional
property-label: MIC

Some entries whose results are on file:
Cc1cccc(C)c1NC(=O)CSc1nnc(-c2cc(F)c(Cl)cc2Cl)n1N	> 100 µg/mL
COc1ccc(NC(=O)CSc2nnc(-c3cc(F)c(Cl)cc3Cl)n2N)cc1	> 100 µg/mL

As a next step, examine the compound that follows.
Input: Retrieve MIC measured for `Cc1ccc(NC2=Nn3c(nnc3-c3cc(F)c(Cl)cc3Cl)SC2)cc1` and print it.
Output: 6.25 µg/mL

* * *

Tested on: Trichophyton mentagrophytes
experiment-summary: Antifungal activity against Trichophyton mentagrophytes after 48 hrs […]
Type: functional
property-label: MIC (µg/mL)
# number only, unit µg/mL dropped from output

Some entries whose results are on file:
Cc1cccc(NC(=O)CSc2nnc(-c3cc(F)c(Cl)cc3Cl)n2N)c1C	6.25
Fc1cc(-c2nnc3n2N=C(Nc2c(Cl)cccc2Cl)CS3)c(Cl)cc1Cl	12.5
Cc1ccc(NC2=Nn3c(nnc3-c3cc(F)c(Cl)cc3Cl)SC2)cc1	6.25
Fc1cc(-c2nnc3n2N=C(Nc2ccc(Cl)cc2Cl)CS3)c(Cl)cc1Cl	12.5
Cc1ccc(NC(=O)CSc2nnc(-c3cc(F)c(Cl)cc3Cl)n2N)c(C)c1	6.25

Input: Retrieve MIC measured for `Fc1ccc(NC2=Nn3c(nnc3-c3cc(F)c(Cl)cc3Cl)SC2)cc1Cl` and print it.
Output: 25

Input: Retrieve MIC measured for `Cc1cc(C)c(NC2=Nn3c(nnc3-c3cc(F)c(Cl)cc3Cl)SC2)c(C)c1` and print it.
Output: 12.5

Input: Retrieve MIC measured for `Fc1cc(-c2nnc3n2N=C(Nc2cc(Cl)c(Cl)cc2Cl)CS3)c(Cl)cc1Cl` and print it.
Output: 6.25

Input: Retrieve MIC measured for `Nn1c(SCC(=O)Nc2ccc(F)c(Cl)c2)nnc1-c1cc(F)c(Cl)cc1Cl` and print it.
Output: 12.5

Input: Retrieve MIC measured for `Nn1c(SCC(=O)Nc2ccc(F)cc2)nnc1-c1cc(F)c(Cl)cc1Cl` and print it.
Output: 6.25

Input: Retrieve MIC measured for `Fc1cc(-c2nnc3n2N=C(Nc2ccccc2C(F)(F)F)CS3)c(Cl)cc1Cl` and print it.
Output: 6.25

Input: Retrieve MIC measured for `Nn1c(SCC(=O)Nc2ccccc2C(F)(F)F)nnc1-c1cc(F)c(Cl)cc1Cl` and print it.
Output: 6.25

Input: Retrieve MIC measured for `Fc1ccc(NC2=Nn3c(nnc3-c3cc(F)c(Cl)cc3Cl)SC2)cc1` and print it.
Output: 6.25

Input: Retrieve MIC measured for C[C@@H]1[C@H](O)[C@@H](C)/C=C/C=C/C=C/C=C/C=C/C=C/C=C/[C@H](O[C@@H]2O[C@H](C)[C@@H](O)[C@H](N)[C@@H]2O)C[C@@H]2O[C@](O)(C[C@@H](O)C[C@@H](O)[C@H](O)CC[C@@H](O)C[C@@H](O)CC(=O)O[C@H]1C)C[C@H](O)[C@H]2C(=O)O [AMPHOTERICIN B] and print it.
Output: 6.25

Input: Retrieve MIC measured for `Cc1cc(C)c(NC(=O)CSc2nnc(-c3cc(F)c(Cl)cc3Cl)n2N)c(C)c1` and print it.
Output: 6.25

* * *

inhibition zone (IZ) overview
Tested on: Candida albicans
experiment-summary: Antifungal activity against Candida albicans assessed as inhibition zone diameter […] by agar dilution method
Format: functional
# number only, unit mm dropped from output

Cc1cc(C)c(NC(=O)CSc2nnc(-c3cc(F)c(Cl)cc3Cl)n2N)c(C)c1	11

Input: Retrieve inhibition zone (IZ) measured for `Nn1c(SCC(=O)Nc2ccc(F)cc2)nnc1-c1cc(F)c(Cl)cc1Cl` and print it.
Output: 19

Input: Retrieve inhibition zone (IZ) measured for `Cc1ccc(NC2=Nn3c(nnc3-c3cc(F)c(Cl)cc3Cl)SC2)cc1` and print it.
Output: 18

Input: Retrieve inhibition zone (IZ) measured for `Nn1c(SCC(=O)Nc2ccc(Cl)cc2)nnc1-c1cc(F)c(Cl)cc1Cl` and print it.
Output: 12

Input: Retrieve inhibition zone (IZ) measured for `Cc1ccc(NC(=O)CSc2nnc(-c3cc(F)c(Cl)cc3Cl)n2N)c(C)c1` and print it.
Output: 14

Input: Retrieve inhibition zone (IZ) measured for `Nn1c(SCC(=O)Nc2c(Cl)cccc2Cl)nnc1-c1cc(F)c(Cl)cc1Cl` and print it.
Output: 12

Input: Retrieve inhibition zone (IZ) measured for `Fc1cc(-c2nnc3n2N=C(Nc2ccc(Cl)cc2Cl)CS3)c(Cl)cc1Cl` and print it.
Output: 15

Input: Retrieve inhibition zone (IZ) measured for `C[C@@H]1[C@H](O)[C@@H](C)/C=C/C=C/C=C/C=C/C=C/C=C/C=C/[C@H](O[C@@H]2O[C@H](C)[C@@H](O)[C@H](N)[C@@H]2O)C[C@@H]2O[C@](O)(C[C@@H](O)C[C@@H](O)[C@H](O)CC[C@@H](O)C[C@@H](O)CC(=O)O[C@H]1C)C[C@H](O)[C@H]2C(=O)O` and print it.
Output: 20

Input: Retrieve inhibition zone (IZ) measured for `Nn1c(SCC(=O)Nc2cc(Cl)c(Cl)cc2Cl)nnc1-c1cc(F)c(Cl)cc1Cl` and print it.
Output: 20

Input: Retrieve inhibition zone (IZ) measured for `Cc1ccc(NC2=Nn3c(nnc3-c3cc(F)c(Cl)cc3Cl)SC2)c(C)c1` and print it.
Output: 8

Input: Retrieve inhibition zone (IZ) measured for `Fc1cc(-c2nnc3n2N=C(Nc2c(Cl)cccc2Cl)CS3)c(Cl)cc1Cl` and print it.
Output: 18
